Where do the numbers come from? From PubChem BioAssay (NCI).

# test_protocol: NCI Yeast Anticancer Drug Screen. Data for the bub3 strain (AID 167)
# study_conditions: S. cerevisiae bub3 mutant strain, at 50.0 µM
This is part of a sample that, as a whole, favours compounds with a hit. Of some 79,000 tested, about 15% had one in any assay. The source made the active and inactive calls. Cut-off read from the data, not from the text of the source: active = growth inhibition above about 70%; inactive = the rest.
Returns: one label drawn from true (1) for active, false (0) for inactive

compound=COc1ccc(NC(=O)CCC(=O)CC(=O)c2ccncc2)cc1 assigned_label="false (0)"

Recorded test call requested for `C/C(=N/O)c1cc([N+](=O)[O-])c(O)cc1O`
true (1)

Cool, now CCCCCCCC/C=C1\CCC(CN(C)C)C1=O (configuration not stated)
true (1)

Next entry: `COc1ccc(C(=O)Cc2nc3nnc(NC(=O)Nc4ccc(Cl)cc4)n3nc2CC(=O)c2ccc(OC)cc2)cc1`
true (1)

* * *

# test_protocol: NCI Yeast Anticancer Drug Screen. Data for the rad50 strain (AID 155);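 note: 0% = growth of vehicle-only cultures of the same strain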
# study_conditions: S. cerevisiae rad50 strain growth inhibition; at 50.0 µM
This is part of a sample that, as a whole, favours compounds with a hit. Of some 79,000 tested, about 15% had one in any assay. Calls of active or inactive are those of the source. No stated cut-off is given here; in the data, active means growth inhibition above about 70%; inactive means the rest.
A correct response names exactly one class from true for active, false for inactive

molecule="CC[N+]1(C)CCC(O)(/C=C/c2ccccc2)C(C(=O)/C=C/c2ccccc2)C1 (configuration not stated)" assigned_label=true
molecule=O=S1(=O)CS(=O)(=O)OCCCO1 assigned_label=false
molecule=Nc1n[n+](-c2ccccc2)no1 assigned_label=false
molecule="COCC1C(=O)c2cc3c(cc2C12C=CC1(C=C2)OCCO1)OCO3 (configuration not stated)" assigned_label=true
molecule=Clc1ccc2oc(N3CCCCC3)nc2c1 assigned_label=true

Which outcome did this test record for the molecule `N[C@H](C(=O)O)[C@@H]1CC(Cl)=NO1` ?
true

And `OC[P+](CO)(CO)C12CC3CC(CC(C3)C1)C2` ?
false

Okay, and `O=C1CCC/C(c2ccccc2)=N\N=C/1c1ccccc1` ?
false

Moving on to `COc1ccc(Cc2ccc(N)cc2)cc1`
true

How about this molecule: CCS(CC)(CC)CC1CCCC2=CCC(P(=O)(c3ccccc3)c3ccccc3)CC21 (configuration not stated)
true

Please answer likewise for Cc1ccc(N2C(=O)C(C)SC23C(=O)Nc2ccc(Cl)cc23)cc1 (configuration not stated)
true

Lookup `CCOCCC(=O)NNc1ccccc1`
false

* * *

# test_protocol: NCI Yeast Anticancer Drug Screen. Data for the sgs1 mgt1 strain (AID 161);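 note: 0% = growth of cultures given vehicle only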
# study_conditions: S. cerevisiae sgs1 mgt1 strain, at 5.0 µM (retest, dose inferred, filed as 0.5), active compounds read high
The panel holds about 79,000 compounds, 15% with a hit somewhere; the sample as a whole holds those more often. The source made the active and inactive calls. No stated cut-off is given here; in the data, active means growth inhibition above about 70%; inactive means the rest.
measured_parameter: growth inhibition

molecule=N#CSCc1c(Cl)cccc1Cl experimental_value="18% (inactive)"

Give its growth inhibition value. Item: `CC(=O)O[C@]1(C(C)=O)CC[C@H]2[C@@H]3C[C@H](C)C4=CC(=O)NCC[C@]4(C)[C@H]3CC[C@@]21C`
-20% (inactive)

Another: `CCCCc1c2c(nc3c1CCc1cc4cc5c(nc4nc1-3)-c1nc3c(c(CCCC)c1CC5)CCC/C3=N/OC)/C(=N\OC)CCC2`
-4% (inactive)

What would you report for `CN(C)/N=C(/CC(O)(C(F)(F)F)C(F)(F)F)c1ccc([N+](=O)[O-])cc1` ?
19% (inactive)

And then `CN(C=O)c1ccc2c(c1)Cc1ccccc1-2` , what is it?
27% (inactive)

Again, but for `CCOC(=O)/C(=C\c1ccc(-c2ccccc2)cc1)C(C)=O`
21% (inactive)

Entry to check: `O/N=C(/C[n+]1csc2ccccc21)c1ccccc1`
-9% (inactive)

Can you handle CCC(C(=O)C(C)C(O)C(C)CCc1ccc(C)c(O)c1C(=O)O)C1OC(CC)(C2CCC(O)(CC)C(C)O2)CC1C (stereo unspecified) next?
40% (inactive)

* * *

# test_protocol: NCI Yeast Anticancer Drug Screen. Data for the cln2 rad14 strain (AID 165);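 note: 0% = growth equal to vehicle treated cultures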
# study_conditions: S. cerevisiae cln2 rad14 strain, at 5.0 µM (retest, dose inferred, filed as 0.5), active compounds read high
The panel holds about 79,000 compounds, 15% with a hit somewhere; the sample as a whole holds those more often.
growth inhibition overview
The reply should contain only the number, in %.

compound=O=C1CCC/C(c2ccccc2)=N\N=C/1c1ccccc1 measured_parameter="growth inhibition" units_of_measure=% experimental_value=8

// returns reported growth inhibition for input CC1(COc2ccccc2OCC2(C)CO2)CO1 (stereo unspecified)
2

Same thing, different compound: `FC(F)(F)c1nc(S)cc(=S)[nH]1`
-2

And for CC1=NN(c2nc(N)nc(C(C)Sc3cc(Cl)c(C)cc3S(N)(=O)=O)n2)C(C)(C)C1 (stereo unspecified) ?
29

Also, `CCCCCCC(=O)OCc1ccc(-c2ccccc2)cc1` please.
26

// next record O=C1OC(CCCl)(c2ccccc2)CC1CN1CCOCC1 (stereo unspecified)
15

* * *

// reported growth inhibition per item
# test_protocol: NCI Yeast Anticancer Drug Screen. Data for the cln2 rad14 strain (AID 165);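 note: 0% = growth equal to vehicle treated cultures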
# study_conditions: S. cerevisiae cln2 rad14 strain, at 50.0 µM (retest, dose inferred, filed as 5.0), active compounds read high
The panel holds about 79,000 compounds, 15% with a hit somewhere; the sample as a whole holds those more often.
Just the number in %, nothing appended.

# query: growth inhibition of entry `C[n+]1c(-c2cccc(OCCCCCCCCOc3cccc(-c4c5cc(N)ccc5c5ccc(N)cc5[n+]4C)c3)c2)c2cc(N)ccc2c2ccc(N)cc21`
97

Try `[Cl][Pt+2]([Cl])([Cl])[Cl].[NH-]CC1(C[NH-])CCCC1` next.
81

Try CCC(c1ccc(O)cc1)C(CC)c1ccc(O)c(O)c1 (centres undefined) next.
99

Can you handle `Cn1cc(NC(=O)c2cc(NC(=O)CCCCCCCCCCC(=O)Nc3cc(C(=O)Nc4cc(C(=O)NCCC(=N)N)n(C)c4)n(C)c3)cn2C)cc1C(=O)NCCC(=N)N` next?
97

* * *

# test_protocol: NCI Yeast Anticancer Drug Screen. Data for the sgs1 mgt1 strain (AID 161);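 note: 0% = growth of cultures given vehicle only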
# study_conditions: S. cerevisiae sgs1 mgt1 strain, at 5.0 µM (retest, dose inferred, filed as 0.5), active compounds read high
Compounds without any hit were thinned out: in the full panel of roughly 79,000, 15% have a hit.
measured_parameter: growth inhibition (%)
Value expressed in %; do not type the unit.

See these solved cases before continuing.
compound=CCOC(=O)c1c(C)[nH]c(C(c2ccccc2)c2[nH]c(C)c(C(=O)OCC)c2C)c1C experimental_value=7
compound=CCOC(=O)/C(Cl)=C(\OCC)C(=O)OCC experimental_value=2
compound=CC(=O)O[C@H]1CC[C@H]2[C@@H]3CCc4cc(O)c(I)cc4[C@H]3CC[C@]12C experimental_value=23

Could you share which growth inhibition value was measured for `S=C(N/N=C1\C=Cc2ccccc2C1)N/N=C1\C=Cc2ccccc2C1` ?
-7

One more compound: `N#C/C(=C\c1c(Cl)cccc1Cl)c1ccccc1`
12

Then this compound: `Oc1c(Br)c(Br)c(O)c(Br)c1Br`
7

* * *

# test_protocol: NCI Yeast Anticancer Drug Screen. Data for the mec2-1 strain (AID 157)
# study_conditions: S. cerevisiae mec2-1 strain, at 50.0 µM (retest, dose inferred, filed as 5.0), active compounds read high
This is part of a sample that, as a whole, favours compounds with a hit. Of some 79,000 tested, about 15% had one in any assay.
Please enter Met where growth inhibition is greater than or equal to 90%, and Not met where it is lower.

Solved cases below.
molecule=COc1ccc(-c2c(C#N)c(-c3ccc(C)cc3)n(NS(=O)(=O)c3ccc(C)cc3)c(=O)c2C#N)cc1 assigned_label="Not met"
molecule="C1CCC(OC2CCCCO2)OC1 (centres undefined)" assigned_label="Not met"
molecule=CC(=O)Nc1ccc(-c2cnc3ccccc3c2)cc1 assigned_label="Not met"

Pending molecule:
Dear colleague, could you confirm whether CCOC(=O)C(CCc1ccccc1[N+](=O)[O-])C(C)=O (centres undefined) has growth inhibition at or above 90%?
Not met

* * *

# test_protocol: NCI Yeast Anticancer Drug Screen. Data for the mec2-1 strain (AID 157)
# study_conditions: S. cerevisiae mec2-1 strain, at 50.0 µM (retest, dose inferred, filed as 5.0)
The panel holds about 79,000 compounds, 15% with a hit somewhere; the sample as a whole holds those more often. Activity calls are given as the source filed them. Rule as the data show it: active = growth inhibition above about 70%; inactive = the rest.
Pick one: active, inactive

Known results for compounds:
compound=NC(N)=N/N=C/c1ccc([N+](=O)[O-])o1 assigned_label=inactive
compound=Nc1nc2c(ccc3ccccc32)s1 assigned_label=inactive
compound="CC(C)C(NC(=O)/C=C\\c1ccccc1)C(=O)O (stereo unspecified)" assigned_label=inactive
compound=Cc1ccccc1[P+](C)(c1ccccc1C)c1ccccc1C assigned_label=active
compound=COc1ccc2nc3cc(Cl)ccc3c(NCCNCCCNC(=O)c3cc(-c4ccccc4)nc4ccccc34)c2c1 assigned_label=active

Could you check what this test reported for CC(=O)Oc1cc2c(cc1OC(C)=O)OCC(c1ccccc1)C2 (stereo unspecified) ?
inactive

Proceed to CC(C)CCCC(C)[C@H]1CCC(C2C[C@@H](O)[C@@H]3CC(O)[C@@H](O)C[C@]3(CO)C2=O)[C@]1(C)CCO (stereo partly specified)
active

// same read-out, input: `Cc1nc2c(=O)[nH]c3ccc(Cl)cc3c2o1`
inactive

Likewise for Cc1ccnc(NC(c2ccccc2)c2ccc3cccnc3c2O)c1 (stereo unspecified) ?
active

Record: `Cc1ccc(-n2cc(-c3ccc(Cl)cc3)c3c(N)ncnc32)cc1`
active

Also, `CC(=O)N1CCC(Cc2ccccc2)CC1` please.
active

Try the compound CCCCNC(=S)NC1C2CC3CC(C2)CC1C3 (stereo unspecified)
inactive
